These entries and their values trace back to patent US20220073643A1.

target: human Claudin18.2 (human); assay: cell-based or functional assay
Parameter Measured: CDC EC50 (mg/L)
Number in mg/L, nothing else.

>  <Binder>
421H4G3 (antibody, V domains shown) VH: DVQLVESGGGLVQPGGSRKLSCAASGFSFSGFGLHWIRQTPEKGLEWVAYISSGSRPIYYADTVKGRFTISRDNPKNTLFLQMTSLRSEDTAMYFCARFYFGNSFDHWGQGTLVTVST VL: DIVMTQSPSFLTVTAGEKVTMSCRSSQSLLNSGNQRNYLTWYQQKPGQPPKLLIYWASTRESGVPDRFTGSGSGTDFTLTINSVQAEDLALYYCQNAYSFPLTFGAGTKLELK

>  <Measurement Unit>
mg/L

>  <CDC EC50>
2.89

$$$$
>  <Binder>
234A10F7 (antibody, V domains shown) VH: QVQLQQSGAELVKPGASVKLSCKASGYTFTSFGINWLRQRPEQGLEWIGWIFPGDGNSKYNENFKGKATLTTDKSSSTAYMQLTRLTSEDSAVYFCARFYYGNSFAYWGQGTLVTVSA VL: DIVMTQSPSSLTVTTGQKVTMSCKSSQSLLNSGNQKNYLTWYQQKPGQPPKLLIYWAATRESGVPDRFTGSGSGTDFTLTISSVQAEDLAVYYCQNDYFYPFTFGAGTKLELK

>  <Measurement Unit>
mg/L

>  <CDC EC50>
2.1

$$$$

From here, focus on the item given below.
# lookup: CDC EC50 of 391H11H3 (antibody, V domains shown) VH: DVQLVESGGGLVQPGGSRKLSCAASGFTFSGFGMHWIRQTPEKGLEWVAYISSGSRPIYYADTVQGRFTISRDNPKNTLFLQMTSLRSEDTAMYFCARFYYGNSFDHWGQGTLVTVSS VL: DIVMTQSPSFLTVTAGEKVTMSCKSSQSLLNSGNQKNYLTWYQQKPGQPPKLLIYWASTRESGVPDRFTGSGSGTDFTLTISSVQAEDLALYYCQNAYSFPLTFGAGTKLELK
2.07
